Can you tell me GI50 for the items I'm about to list?
test system: RPMI-8226 leukemia; test: NCI tumour cell line growth inhibition, 48 h

# compound `CC(=O)[CH-]C(=O)c1ccccc1.CC(=O)[CH-]C(=O)c1ccccc1.Cl.[O-]c1ccnc2ccccc12.[O-]c1ccnc2ccccc12.[Ti+4]` ; its GI50 = > 100000 nM

The value of GI50 measured for the compound `CCN1CCN(c2nc(C)cc(NCc3cc(Nc4ccnc5cc(Cl)ccc45)ccc3F)n2)CC1` turned out to be 981 nM

GI50 reported for this compound CC12OC(CC(O)C1O)n1c3ccccc3c3c4c(c5c6ccccc6n2c5c31)C(=O)N(CCN1CCOCC1)C4=O (stereo unspecified) : 1550 nM

Per the records, this compound ( `O=C1/C(=C\c2ccc(F)cc2)CN(C(=O)c2ccccc2F)C/C1=C\c1ccc(F)cc1` ) has GI50 equal to 137 nM

What the record says about `O=C(Nc1nc(-c2ccc(Cl)cc2)cs1)c1cc(O)c(O)c(O)c1` : GI50 is 197000 nM

Given item `CC[C@@H](C)/C=C(C)/C=C/C(=O)c1c(O)c(-c2ccc(OC(=O)[C@@]34CC[C@@](C)(C(=O)O3)C4(C)C)cc2)cn(O)c1=O` , the value recorded as its GI50 is 2490 nM

`COc1ccc2c(c1)C(=Nc1ccc(F)c(Cl)c1)c1c-2c(Nc2ccc(F)c(Cl)c2)nc2ccccc12` has a reported GI50 of > 60400 nM

Entry COc1cccc2c1C(=O)c1c(O)c3c(c(O)c1C2=O)C[C@@](O)(C(=O)CO)CC3OC1CC(N)C(OC2CCCCO2)C(C)O1 (stereo partly specified) , GI50 reported as 3.94 nM

Query `CC1=CC(=O)N(c2cccc3c(N4C(=O)C=C(C)C4=O)cccc23)C1=O` yields GI50 of 3710 nM

Record `C=C1c2nc3ccccc3n2C=C(c2cccc(Cl)c2)N1Cc1ccc(OC)cc1` . Reported GI50: 361 nM

For record Cc1ccc(N)cc1[As]=[As]c1cc(N)ccc1C (stereo unspecified) the listed GI50 is 1070 nM

###

system: MDA-MB-435
Tick one outcome: class 1 (active), class 0 (inactive)

Check the results log: what was the call for `CCc1nc(C)cn1C(=O)OCc1nc2nc(Cl)nc(N3CCOCC3)c2[nH]1` ?
class 0

Hello, I am checking results. What call was entered for `C=C1C(=O)O[C@H]2[C@H]1CC/C(COC(=O)c1cccnc1N)=C\CC[C@@]1(C)O[C@@H]21` ?
class 0

Lab log entry: `O=C1/C(=C\c2ccc(F)cc2)CN(C(=O)c2ccccc2F)C/C1=C\c1ccc(F)cc1` — outcome as called in the assay?
class 0

For `NC(=O)c1c(NC(=O)c2cccs2)sc2c1CCC(=O)C2` , what call appears in the results of this test?
class 0

Each molecule tested received a call. Report the one for `Nc1ccccc1C#C/C=C\C#Cc1ccccc1C#CCO` .
class 0

Test call, this molecule: `CN1CCN(CCCNC(=O)c2c3c(n4ccccc24)C(=O)c2ncccc2C3=O)CC1`
class 1

What was the test verdict on `C=C1c2nc3ccccc3n2C=C(c2cccc(Cl)c2)N1Cc1ccc(OC)cc1` ?
class 1

Answer briefly: the call reported for COc1cc2c(cc1OC)C(C(CCCCCC(CCC(C)C)C1NCCc3cc(OC)c(OC)cc31)CCC(C)C)NCC2 (stereo not given) in this assay.
class 0

GET /call?item= `O=C1C=C(NCCO)c2nccc3c2c1nc1ccccc13` returns the recorded outcome of this test.
class 0

What outcome does the record of this test show for `O=C(Oc1ccccc1)N(c1ccccc1)c1ccccc1` ?
class 0

###

tested on: SK-MEL-2 melanoma; test: NCI tumour cell line growth inhibition, 48 h
*1 amine or outer side, *2 acyl side, *3 side chain or, on linkers, in order; H or OH if unused. Where a SMILES comes first, the peptide text is derived from it. Bridges are numbered along the chain shown (N, C = ends). [ ]: non-standard residue; d: D form. X35 = CC[C@H](C)[C@@H](N[*:1])[C@@H](O)CC(=O)O[C@H](C(=O)[C@H](C)C(=O)[*:2])C(C)C; NMeY = CN[C@@H](Cc1ccc(O)cc1)C(=O)O
Record form. Attribute: TGI. Fill in for each entry.

Data point: Cc1cccc(NC(=O)C(=O)C(C2OC(=O)c3ccccc32)[N+](=O)[O-])c1C (configuration not stated) ; TGI = 17.2 µM

Looking up `NS(=O)(=O)c1nnc(NS(=O)(=O)c2ccccc2[N+](=O)[O-])s1` , I see its TGI listed as > 100 µM

Kindly note the recorded TGI for CC1OC(n2cc(C(F)(F)F)c(=O)[nH]c2=O)C=CC1=O (configuration not stated) , which is 34.6 µM

Please fill in: TGI reported for `CCOC(=O)c1cc(=O)n(C)c(=O)n1C` = > 100 µM

According to the records, this compound `Cc1nc2nc(C)n(CCN3CCOCC3)c(=O)c2c(-c2cccc([N+](=O)[O-])c2)c1C(=O)CCCCCCCCCCN1CCC(c2ccccc2)(c2ccccc2)CC1` displays TGI of 4.76 µg/mL

Short answer for `Cn1nnc2c(C(N)=S)ncn2c1=O` : TGI was > 100 µM

Measured TGI of `CCOP(=O)(C/C=C/Cn1ncc(=O)[nH]c1=O)OCC` : > 100 µM

Note to self: TGI recorded for `O=C1c2ccccc2C(=O)N1CCCOCc1c[nH]c(=O)[nH]c1=O` was > 100 µM

// TGI lookup, compound = CC12OC(CC(O)C1O)n1c3ccccc3c3c4c(c5c6ccccc6n2c5c31)C(=O)N(CCN1CCOCC1)C4=O (configuration not stated) , result: 10.6 µM

The compound listed as `Cn1c(=O)c2ccccc2[n+]2c(-c3cccc([N+](=O)[O-])c3)csc12` has a reported TGI of > 100 µM

TGI reading for `C[C@]12CC[C@H](O[C@@H]3O[C@H](CO[C@@H]4O[C@H](CO)[C@@H](O)[C@H](O)[C@H]4O)[C@@H](O)[C@H](O)[C@H]3O)C[C@@H]1CC[C@@H]1[C@@H]2CC[C@]2(C)[C@@H](C3=CC(=O)OC3)CC[C@]12O` : > 94 µM

Lab note: measured TGI of CCOC(=O)C1=C(C)N(c2ccc(Cl)cc2)C2(O)C=CC(=O)C3=C(O)c4ccccc4C(=O)C312 (configuration not stated) was 16.2 µM

// `Cc1ccc(/C=N/NC(=O)c2ccccc2Oc2ccccc2)o1` : TGI value = > 90.9 µM

Reported TGI for `Cc1cc(=O)oc2c1cc1ccc3cccc4ccc2c1c34` was > 100 µM

The measured TGI associated with `CN1CCN(c2cc3nc(-c4ccc(Cl)cc4)[nH]c3cc2F)CC1` reads 34.5 µM

Per the record, Cc1ccc(N2C(=O)C3c4[nH]c5ccc(C)cc5c4C4CCC(C(C)(C)C)CC4C3C2=O)cc1 (configuration not stated) has TGI of 99.5 µM

# compound `COc1ccc(Cn2cc(COc3cc(/C=C/C(=O)c4cc(OC)c(OC)c(OC)c4)ccc3OC)nn2)cc1` ; its TGI = 42.1 µM

// sample CCCCCCCCOC(=O)C12Oc3ccc(-c4ccc5c(c4O)C(O)=C4C(=O)CC(C)C(O)C4(C(=O)OCCCCCCCC)O5)c(O)c3C(O)=C1C(=O)CC(C)C2O (configuration not stated) , its TGI was 47.4 µM

Briefly, TGI measured for `CCOC(=O)c1ncn(CCc2ccc(Cl)cc2)c1C` : > 100 µM

Briefly, TGI measured for `CCN(CC)C(=O)CCn1cc(F)c(=O)[nH]c1=O` : > 100 µM

What the record says about `COc1ccccc1-n1nnc2c(N)nc(N)nc21` : TGI is > 100 µM

Looking up COc1cc(OCc2ccccc2)c2c(CCC(=O)O)cc(=O)oc2c1 (tested in a mixture with another compound) , I see its TGI listed as > 100 µM

Notebook: COc1ccc(-c2sc(Br)c3c2C(=O)C2OC(=O)NC32)cc1OC (configuration not stated) , TGI read as > 100 µM

Recorded result, COc1ccc(N2C(=O)C(Cl)C2c2cc3cc(Br)ccc3nc2Cl)cc1 (configuration not stated) , TGI: 11.1 µM

For record `N=c1oc2ccccc2cc1C(=O)Nc1cccc2ccccc12` the listed TGI is > 100 µM

Value of measured TGI for the entry CC[C@H](C)[C@H]1NC(=O)[C@@H](N)[C@@H](C)OC(=O)[C@H](Cc2ccc(OC)cc2)N(C)C(=O)[C@@H]2CCCN2C(=O)[C@H](CC(C)C)NC(=O)[C@@H](C)C(=O)[C@H](C(C)C)OC(=O)C[C@@H]1O (H-T[X35]LP[NMeY](Me); ester 1-C) : > 100 µM

The compound `CCc1nc(C)cn1C(=O)OCc1nc2nc(Cl)nc(N3CCOCC3)c2[nH]1` showed TGI equal to 3.29 µM

Each recorded value in this set is attributed to PubChem BioAssay (NCI).
